- SYSTEM: USP11-D1D2 (Homo sapiens, UniProt P51784)
- Construct: catalytic core only: D1 and D2 segments joined by five residues (ASTSK), UBL2-IDR insert, DUSP and UBL1 removed; E. coli BL21 RIL, N-terminal His6 tag cut with TEV
- Sequence (P51784 286-490 limits assumed): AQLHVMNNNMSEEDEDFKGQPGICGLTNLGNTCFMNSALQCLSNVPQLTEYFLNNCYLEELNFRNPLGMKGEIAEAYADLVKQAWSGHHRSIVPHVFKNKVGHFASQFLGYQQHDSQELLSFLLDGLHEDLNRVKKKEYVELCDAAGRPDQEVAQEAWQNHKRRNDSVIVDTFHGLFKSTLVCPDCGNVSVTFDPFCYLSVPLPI
- Sequence (P51784 735-930 limits assumed): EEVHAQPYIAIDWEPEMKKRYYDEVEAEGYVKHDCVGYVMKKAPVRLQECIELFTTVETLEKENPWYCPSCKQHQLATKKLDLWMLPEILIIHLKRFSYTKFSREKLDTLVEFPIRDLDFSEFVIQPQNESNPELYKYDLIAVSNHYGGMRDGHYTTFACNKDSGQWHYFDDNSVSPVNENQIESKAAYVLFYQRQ
- ASSAY PROTOCOL: SDS-gel deubiquitination of K63-polyubiquitinated Rsp5 (fluorescein-Ub)
- Format: biochemical
- EXPERIMENTAL CONTEXT: 1 μM enzyme, 25 mM Tris pH 7.5, 200 mM NaCl, 3 mM βME; value printed collectively for the analogs
ASSAY METRIC: IC50

INSERT INTO results (molecule, assay_metric, result) VALUES
  ('Oc1ccc(C2CNCCc3c2cc(O)c(O)c3Cl)cc1 (stereo not shown)', 'IC50', '~30 µM');
